T1/2 values for the binders below.
measured_on: TrkB (Homo sapiens (Human), UniProt Q16620 32-430)
Sequence (Q16620 32-430 limits assumed): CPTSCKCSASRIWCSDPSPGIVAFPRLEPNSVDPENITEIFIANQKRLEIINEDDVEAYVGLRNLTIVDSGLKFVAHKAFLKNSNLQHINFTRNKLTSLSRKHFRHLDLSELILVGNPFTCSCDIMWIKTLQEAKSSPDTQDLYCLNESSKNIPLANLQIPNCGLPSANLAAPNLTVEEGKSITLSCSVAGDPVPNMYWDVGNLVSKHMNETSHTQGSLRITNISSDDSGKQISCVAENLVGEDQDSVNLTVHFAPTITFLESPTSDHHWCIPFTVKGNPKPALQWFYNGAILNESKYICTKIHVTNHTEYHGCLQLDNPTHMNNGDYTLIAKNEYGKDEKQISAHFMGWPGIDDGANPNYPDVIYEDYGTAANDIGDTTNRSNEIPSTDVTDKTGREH
experiment: koff of Fab at 25 C; T1/2=Log2/koff
Note: unit min is implicit; provide only the numeric part.

The cases that follow already have their T1/2 on record.
Notebook: 4B12-3 (Fab, V domains shown, Fab) VH: QVQLVQSGAEVKKPGASVKVSCKASGYTFTNYDIIWVRQAPGQGLEWMGYINPYVGRREYNEKFKGRVTMTRDTSTSTVYMELSSLRSEDTAVYYCARLLKYRRFRYYAIDYWGQGTTVTVSS VL: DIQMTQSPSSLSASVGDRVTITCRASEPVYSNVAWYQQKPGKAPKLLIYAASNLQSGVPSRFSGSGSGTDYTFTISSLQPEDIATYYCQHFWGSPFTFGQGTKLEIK , T1/2 read as 6.6

Notebook: 12-H6 (Fab, V domains shown, Fab) VH: QVQLVQSGAEVKKPGASVKVSCKASGYTFTNYDIIWVRQAPGQGLEWMGYINPYNRRREYNEKFKGRVTMTRDTSTSTVYMELSSLRSEDTAVYYCARLLKYRRFRYYAIDYWGQGTTVTVSS VL: DIQMTQSPSSLSASVGDRVTITCRASENVYRNLAWYQQKPGKAPKLLIYAASNLQSGVPSRFSGSGSGTDYTFTISSLQPEDIATYYCQHFWGSPFTFGQGTKLEIK , T1/2 read as 12

Shift focus to the following entry.
Notebook: 9-G8 (Fab, V domains shown, Fab) VH: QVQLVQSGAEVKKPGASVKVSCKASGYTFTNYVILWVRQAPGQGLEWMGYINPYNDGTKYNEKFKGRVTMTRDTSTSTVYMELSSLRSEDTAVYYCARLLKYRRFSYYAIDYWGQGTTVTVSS VL: DIQMTQSPSSLSASVGDRVTITCRASENVYSNLAWYQQKPGKAPKLLIYAASNLQSGVPSRFSGSGSGTDFTFTISSLQPEDIATYYCQHFWYSPFWFGQGTKLEIK , T1/2 read as 1.13
